B1: VH:VL chains; a variant is named by its letters at X, in order (parent)
chain 1: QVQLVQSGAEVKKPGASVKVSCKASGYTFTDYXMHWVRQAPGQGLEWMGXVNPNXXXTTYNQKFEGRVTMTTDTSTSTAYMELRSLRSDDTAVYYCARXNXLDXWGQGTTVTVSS
chain 2: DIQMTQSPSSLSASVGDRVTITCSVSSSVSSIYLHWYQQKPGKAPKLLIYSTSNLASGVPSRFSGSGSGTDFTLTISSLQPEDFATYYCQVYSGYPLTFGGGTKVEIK

- Variants of: B1
- ASSAY_OVERVIEW: yeast display scFab, FACS + sequencing
- CONDITION_PARAMETERS: with MET
This is one part of the list. How many sequences the whole screen found active is unknown.
PROPERTY_LABEL: antigen binding call

// solved cases for antigen binding call follow
{"VARIANT": "FRKRGAWY", "MEAS_VALUE": "binds"}
{"VARIANT": "YTRGAASD", "MEAS_VALUE": "no binding"}
{"VARIANT": "YKGRGYGF", "MEAS_VALUE": "no binding"}
{"VARIANT": "SREAADWA", "MEAS_VALUE": "no binding"}
{"VARIANT": "FRAGGAWY", "MEAS_VALUE": "binds"}
{"VARIANT": "SKTRGAWD", "MEAS_VALUE": "binds"}
{"VARIANT": "YRRGDAWY", "MEAS_VALUE": "binds"}
{"VARIANT": "DRRGDAVY", "MEAS_VALUE": "no binding"}

Which antigen binding call value is on record for VRERGDWV ?
no binding

Which antigen binding call value is on record for SGTKGYWD ?
no binding

Which antigen binding call value is on record for FGGEGDGA ?
no binding

Which antigen binding call value is on record for YKRGSAGD ?
binds

Which antigen binding call value is on record for YKGRGAGF ?
binds

Which antigen binding call value is on record for DTRGADAV ?
no binding
